# credit: patent US9637496B2

Give pKi for every item shown.
- SYSTEM: UniProt P56718
- Sequence (P56718 whole entry): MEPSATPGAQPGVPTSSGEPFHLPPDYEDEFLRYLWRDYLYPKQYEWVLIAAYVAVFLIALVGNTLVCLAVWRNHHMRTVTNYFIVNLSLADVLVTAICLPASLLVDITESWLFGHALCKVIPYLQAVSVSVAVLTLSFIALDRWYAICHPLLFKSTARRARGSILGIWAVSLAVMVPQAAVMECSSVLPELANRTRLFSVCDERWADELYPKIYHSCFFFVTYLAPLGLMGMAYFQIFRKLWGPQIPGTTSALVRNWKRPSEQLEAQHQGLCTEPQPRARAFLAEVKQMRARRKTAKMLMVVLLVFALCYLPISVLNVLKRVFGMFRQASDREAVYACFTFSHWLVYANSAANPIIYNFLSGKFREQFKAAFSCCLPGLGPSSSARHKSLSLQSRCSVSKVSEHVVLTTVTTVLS
- TEST SUMMARY: Rat orexin 1 receptor radioligand binding (competitive binding, HEK293 membranes)
- EXPERIMENTAL SETUP: Table 2, further testing; averages from 2-20 runs; read-out: rOX1 Ki
One number for each entry, as −log10 of the molar value.

The following compounds have reported results that may help.
> print(dat)
                                   compound  value.type  measured.number
1  O=C(c1c(F)cccc1-c1ncccn1)N1[C@@H]2CC[C@H]1[C@H](Nc1ncc(C(F)(F)F)cc1F)C2         pKi             7.59
2  O=C(c1cccc(F)c1-n1nccn1)N1[C@@H]2CC[C@H]1[C@H](Nc1ncc(C(F)(F)F)cc1F)C2         pKi             7.47
3  O=C(c1ccccc1-n1nccn1)N1[C@@H]2CC[C@H]1[C@H](Nc1ncc(C(F)(F)F)cc1F)C2         pKi             7.39
4  Cc1cccc(C(=O)N2[C@@H]3CC[C@H]2[C@H](Nc2ncc(C(F)(F)F)cc2F)C3)c1-c1ncccn1         pKi             7.74

For the 3 compounds below, give their pKi values.
1. O=C(c1cccc(F)c1-n1nccn1)N1C2CCC1C(Oc1cnc(C(F)(F)F)cn1)C2 (racemic)
2. Cc1cccc(C(=O)N2[C@@H]3CC[C@H]2[C@H](Nc2ncc(C(F)(F)F)cc2F)C3)c1-n1nccn1
3. Cc1cnc(-c2ncccn2)c(C(=O)N2[C@@H]3CC[C@H]2[C@H](Nc2ncc(C(F)(F)F)cc2F)C3)c1

1. 6.34
2. 7.85
3. 6.33

* * *

- SYSTEM: human orexin 1 receptor (Homo sapiens (Human), UniProt O43613)
- Sequence (O43613 whole entry): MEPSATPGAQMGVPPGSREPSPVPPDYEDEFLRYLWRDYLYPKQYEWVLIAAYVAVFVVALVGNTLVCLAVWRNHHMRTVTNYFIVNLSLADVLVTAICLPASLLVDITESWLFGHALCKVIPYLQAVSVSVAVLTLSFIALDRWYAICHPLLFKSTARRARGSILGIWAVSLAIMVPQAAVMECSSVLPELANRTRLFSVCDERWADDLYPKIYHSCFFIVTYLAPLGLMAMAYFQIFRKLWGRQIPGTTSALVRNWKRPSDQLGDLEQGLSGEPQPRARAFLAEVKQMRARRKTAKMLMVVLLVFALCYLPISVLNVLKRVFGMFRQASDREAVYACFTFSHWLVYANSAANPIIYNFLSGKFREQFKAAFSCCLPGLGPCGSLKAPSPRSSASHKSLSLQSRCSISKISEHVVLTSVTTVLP
- TEST SUMMARY: Human orexin 1 receptor radioligand binding (competitive binding, CHO membranes)
VALUE TYPE: pKi
Numbers only, as −log10 of the molar value.

The following molecules have reported results that may help.
> print(dat)
                                   molecule  measured.number
1  O=C(c1ccccc1-n1nccn1)N1C2CCC1C(Oc1ccc(C(F)(F)F)cn1)C2 (racemic) [Example 421]             6.81
2  O=C(c1cccc(F)c1-c1ncccn1)N1[C@@H]2CC[C@H]1[C@H](Nc1ccc(C(F)(F)F)cn1)C2 [Example 279]             8.05
3  O=C(c1cccc(F)c1-c1ncccn1)N1C2CCC1C(Oc1ccc(C(F)(F)F)cn1)C2 (racemic) [Example 429]             6.92

We next turn to a different molecule, shown below.
# get_value(readout='pKi', item= O=C(c1cccc(F)c1-c1ncccn1)N1C2CCC1C(COc1ccc(F)cn1)C2 (racemic) [Example 124] )
7.12

* * *

Give pKi for every item shown.
- SYSTEM: human orexin 1 receptor (Homo sapiens (Human))
- TEST SUMMARY: Human orexin 1 receptor radioligand binding (competitive binding, CHO membranes)
- EXPERIMENTAL SETUP: Table 2, further testing; averages from 2-20 runs; read-out: hOX1 Ki
Give bare numbers, as −log10 of the molar value.

> print(dat)
                                   compound  value.type  measured.number
1  Cc1cnc(C(=O)N2[C@@H]3CC[C@H]2[C@H](Nc2ncc(C(F)(F)F)cc2F)C3)c(-c2ncccn2)c1         pKi             7.01
2  O=C(c1c(F)cccc1-c1ncccn1)N1[C@@H]2CC[C@H]1[C@H](Nc1ncc(C(F)(F)F)cc1F)C2         pKi             7.15
3  O=C(c1ncccc1-c1ncccn1)N1[C@@H]2CC[C@H]1[C@H](Nc1ncc(C(F)(F)F)cc1F)C2         pKi             7.35
4  O=C(c1ccccc1-c1ncc(F)cn1)N1[C@@H]2CC[C@H]1[C@H](Nc1ncc(C(F)(F)F)cc1F)C2         pKi             7.39

We next turn to a different compound, shown below.
# get_value(readout='pKi', item= "Cc1cccc(C(=O)N2[C@@H]3CC[C@H]2[C@H](Nc2ncc(C(F)(F)F)cc2F)C3)c1-c1ncccn1" )
7.51
